The entries below come with measured pIC50 values attached.
Tested on: Jukat (human T lymphocyte cell line for acute T cell leukemia)
PROCEDURE DETAILS: CellTiter Glo assay in Jukat cells
Format: cell-based
REPORTED CONDITIONS: Table 5
pIC50: −log10 of the molar value.

N#Cc1ccc(NC(=O)c2cc(Br)c3cccnc3c2O)cc1    > 7.00
O=C(Nc1cc(C(F)(F)F)cc(C(F)(F)F)c1)c1ccc2cccnc2c1O    6.00 to 7.00

Q) Give the reported value of pIC50 for this record: "Cc1cccc(Cl)c1NC(=O)c1ccc2cccnc2c1O"
A) 5.00 to 6.00

Q) Give the reported value of pIC50 for this record: "Cc1cc(C#N)ccc1NC(=O)c1ccc2cccnc2c1O"
A) 6.00 to 7.00

Q) Give the reported value of pIC50 for this record: "N#Cc1ccc(NC(=O)c2ccc3cccnc3c2O)cc1"
A) 6.00 to 7.00
